Origin of the recorded values: patent US8367687B2

Biological target: hCDK1/B (Homo sapiens)
Sequence (P06493 whole entry): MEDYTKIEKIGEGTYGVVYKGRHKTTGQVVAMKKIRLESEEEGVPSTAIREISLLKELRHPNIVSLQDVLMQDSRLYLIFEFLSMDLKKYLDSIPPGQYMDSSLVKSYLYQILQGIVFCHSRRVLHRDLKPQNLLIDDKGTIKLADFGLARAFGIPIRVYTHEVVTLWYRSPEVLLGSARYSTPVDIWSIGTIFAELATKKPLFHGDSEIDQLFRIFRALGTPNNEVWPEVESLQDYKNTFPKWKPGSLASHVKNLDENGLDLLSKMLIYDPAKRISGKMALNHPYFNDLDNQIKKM
Sequence (P14635 whole entry partner): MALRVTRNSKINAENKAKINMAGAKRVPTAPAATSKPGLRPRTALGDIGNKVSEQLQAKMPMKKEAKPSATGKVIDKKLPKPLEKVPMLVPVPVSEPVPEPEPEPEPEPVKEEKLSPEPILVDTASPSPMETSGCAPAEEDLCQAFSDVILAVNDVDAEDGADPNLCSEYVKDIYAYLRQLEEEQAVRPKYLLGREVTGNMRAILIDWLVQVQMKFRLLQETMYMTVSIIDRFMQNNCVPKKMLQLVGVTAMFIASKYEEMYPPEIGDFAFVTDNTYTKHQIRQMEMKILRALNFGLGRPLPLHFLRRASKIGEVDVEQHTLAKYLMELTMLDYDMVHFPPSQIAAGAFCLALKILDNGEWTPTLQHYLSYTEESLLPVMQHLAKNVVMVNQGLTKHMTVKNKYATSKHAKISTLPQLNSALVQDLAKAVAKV
Experiment: hCDK1/B
Type: biochemical
Settings: Table 1
pIC50: −log10 of the molar value.
Provide the recorded pIC50 for the entries that follow.

Task item: Return reported pIC50; argument: Cc1ccc(CNc2cc(-c3cn[nH]c3C3CCCC3)ccn2)cc1
Reply: > 5.30

Task item: Return reported pIC50; argument: CC(C)c1[nH]ncc1-c1ccnc(NCc2ccccc2)c1
Reply: > 5.30

Task item: Return reported pIC50; argument: CC(C)c1[nH]ncc1-c1ccnc(NCCCCN(C)C)c1
Reply: ≤ 4.82

Task item: Return reported pIC50; argument: CC(C)c1[nH]ncc1-c1ccnc(NCCCO)c1
Reply: > 5.30

Task item: Return reported pIC50; argument: Cc1ccc(CNc2cc(-c3cn[nH]c3C(C)C)ccn2)cc1
Reply: > 5.30

Task item: Return reported pIC50; argument: CCC(CC)c1[nH]ncc1-c1ccnc(NC2CCc3ccccc32)c1 (centres unmarked)
Reply: > 5.30

Task item: Return reported pIC50; argument: Cc1ccccc1CNc1cc(-c2cn[nH]c2C(C)C)ccn1
Reply: > 5.30

Task item: Return reported pIC50; argument: CC(C)CCNc1cc(-c2cn[nH]c2C(C)C)ccn1
Reply: > 5.30

Task item: Return reported pIC50; argument: CC(C)c1[nH]ncc1-c1ccnc(NCCCN(C)C)c1
Reply: ≤ 4.82

Task item: Return reported pIC50; argument: CC(C)c1[nH]ncc1-c1ccnc(NCC2CC2)c1
Reply: > 5.30

Task item: Return reported pIC50; argument: c1cncc(CCNc2cc(-c3cn[nH]c3C3CCCC3)ccn2)c1
Reply: > 5.30

Task item: Return reported pIC50; argument: Cc1cccc(CNc2cc(-c3cn[nH]c3C(C)C)ccn2)c1
Reply: > 5.30

Task item: Return reported pIC50; argument: CC(C)c1[nH]ncc1-c1ccnc(NCCOc2ccccc2)c1
Reply: > 5.00

Task item: Return reported pIC50; argument: CC(C)c1[nH]ncc1-c1ccnc(NC2CCc3ccccc32)c1 (centres unmarked)
Reply: > 5.30
